- Assayed Target: LTD4 evoked ileal contractions (Cavia porcellus, UniProt Q2NNR5)
- Construct: A section of terminal ileum was removed, the lumen cleaned, and the tissue divided into 2.5 cm. segments; from tissue; host or cells: terminal ileum of male Hartley guinea pigs
- Sequence (Q2NNR5 whole entry): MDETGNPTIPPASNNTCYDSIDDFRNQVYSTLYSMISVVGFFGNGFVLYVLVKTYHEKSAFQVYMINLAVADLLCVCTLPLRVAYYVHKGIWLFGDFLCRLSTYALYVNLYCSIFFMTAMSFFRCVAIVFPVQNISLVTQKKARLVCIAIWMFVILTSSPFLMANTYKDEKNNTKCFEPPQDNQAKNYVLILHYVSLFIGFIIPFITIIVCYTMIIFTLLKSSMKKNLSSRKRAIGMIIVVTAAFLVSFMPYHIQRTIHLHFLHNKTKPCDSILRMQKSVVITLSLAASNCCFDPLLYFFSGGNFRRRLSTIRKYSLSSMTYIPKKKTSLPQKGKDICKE
- Assay Method Text: Antagonism of LTD4-evoked contraction of isolated guinea pig ileum (single concentration)
- Type: cell-based
- Experimental Parameters: 3 × 10^-6 M, pure LTD4, 5 minute exposure, read-out: Percent Inhibition of LTD4 evoked ileal contractions
Readout Name: inhibition at 3 µM (%)

{"Compound": "CCCc1c(OCCCCCc2nnn[nH]2)ccc(C(C)=O)c1O", "inhibition at 3 µM (%)": 87}

(1) CCCc1c(OCCCCCCCCc2nnn[nH]2)ccc(C(C)=O)c1O
(2) CCCc1c(OCCCCCCCCCCCCc2nnn[nH]2)ccc(C(C)=O)c1O
(3) CCCc1c(OCCCCC(=O)NO)ccc(C(C)=O)c1O
Req: Task field, ranking: reported inhibition at 3 µM, descending order. Arrange the labels as the request states and list them.
Resp: 1, 3, 2
(1: 100%, 3: 70%, 2: 47%)
